Reference source: patent US20120115128A1

system-tested: eDHFR (Escherichia coli)
Construct: pRSETb-EGFP-eDHFR expressed the protein fusion […]-[EGFP]-GSGGSG-[eDHFR]; His6 leader of pRSETb ([…]) (N)
test-name: biochemical
test-settings: terbium-complexed probe 20 nM, purified eDHFR-GFP, non-linear least-squares fit; read-out: dissociation constant for binding to eDHFR
value-type: Kd

// Input: COc1cc(Cc2cnc(N)nc2N)cc(OC)c1OCCCCC(=O)NCCOCCOCCNC(=O)CN(CCN(CCN(CC(=O)O)CC(=O)Nc1ccc2c(C)cc(=O)[nH]c2c1)CC(=O)O)CC(=O)O . Output its Kd only.
9 nM
